SYSTEM_UNDER_TEST: Xcc NAMPT (Xanthomonas campestris pv. campestris, UniProt A0A0H2X5R2)
Sequence (A0A0H2X5R2 whole entry): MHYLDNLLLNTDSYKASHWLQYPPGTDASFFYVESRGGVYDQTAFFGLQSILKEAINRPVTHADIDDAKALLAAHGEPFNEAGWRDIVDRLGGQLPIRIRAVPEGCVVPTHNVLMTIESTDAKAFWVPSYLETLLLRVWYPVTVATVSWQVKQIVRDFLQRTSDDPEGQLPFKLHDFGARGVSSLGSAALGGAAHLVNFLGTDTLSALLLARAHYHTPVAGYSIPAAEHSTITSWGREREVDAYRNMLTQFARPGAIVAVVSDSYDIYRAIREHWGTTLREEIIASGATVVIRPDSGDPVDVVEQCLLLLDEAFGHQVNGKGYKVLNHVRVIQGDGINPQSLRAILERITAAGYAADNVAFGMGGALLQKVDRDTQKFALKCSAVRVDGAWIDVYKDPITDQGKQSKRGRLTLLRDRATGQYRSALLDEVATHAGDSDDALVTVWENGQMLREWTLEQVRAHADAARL
QUANTITY: IC50 (nM)

O=C(/C=C/c1cccnc1)NCCCCC1CCN(C(=O)c2ccccc2)CC1 ... 0.23
